The values you see were collected from the supplement of paper PMC10567573.

B1: DCAF4 (parent)
chain: PGIDRPGMLCSFRIPGAWSCAWSL

Variants of: B1
methodNotes: protein stability index of a GFP-peptide fusion (GPS, HEK-293T) (PSI 1-6); higher = more stable;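 further: lentivirally expressed fusions sorted by FACS into six bins by GFP to DsRed ratio, PSI derived from sequencing read proportions per bin multiplied by bin number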
particulars: c terminus: a fixed tail appended
observedProperty: protein stability index
Please state the value as a number alone, without comment.

Observe how each entry below is paired with its result.
G2R; 3.78
F12L; 2.62
W22A; 2.54
L24P; 2.03

### Prompt Check the records and state protein stability index for G16V
### Response 2.81

### Prompt Check the records and state protein stability index for W18K
### Response 2.9

### Prompt Check the records and state protein stability index for P1S
### Response 3.17

### Prompt Check the records and state protein stability index for C20P
### Response 3.17

### Prompt Check the records and state protein stability index for G2K
### Response 2.19

### Prompt Check the records and state protein stability index for G16Y
### Response 2.84

### Prompt Check the records and state protein stability index for L9P
### Response 2.5

### Prompt Check the records and state protein stability index for P15I
### Response 2.28

### Prompt Check the records and state protein stability index for W22P
### Response 1.19
